B1: library; a variant is named by its letters at N, in order (parent)
chain: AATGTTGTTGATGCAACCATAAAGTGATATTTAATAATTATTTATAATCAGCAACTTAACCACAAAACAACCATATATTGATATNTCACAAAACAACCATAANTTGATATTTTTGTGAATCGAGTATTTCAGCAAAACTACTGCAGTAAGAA

Variants of: B1
Run description: relative integration efficiency (T-RL orientation) vs wild-type transposon end (log2 (normalized fold change)); transposon end mutated: left end; higher = more efficient transposition
Assay context: with VchCAST RNA-guided transposition machinery (E. coli BL21(DE3) host, lacZ target)
We begin with a simple list: items and their reported relative integration efficiency (log2).

CG A21G; -0.412

Task: Need relative integration efficiency (log2), item TA A16C G24T T30A T76A T78A T84A C87A T104G T113A
Output: -0.412

Task: Entry CG A90T please
Output: -0.404

Task: What about CG T30A T84A T110A ?
Output: -0.403
